The values you see were collected from the supplement of paper PMC6555819.

I'd appreciate it if you could supply PBM binding z-score values for the items below.
System: RARg homodimer (NR concentration 270 nM)
Test: PBM binding z-score (relative to random genomic background probes); higher = stronger binding; sequences stand for … in GC…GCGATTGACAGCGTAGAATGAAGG
Numbers only.

Example entries begin here.
- sequence_record: "TCAGACCGGTGAAGGTAACTCAGGTACGCAGTCG"
  property_label: "PBM binding z-score"
  numeric_readout: -0.104
- sequence_record: "ACGATTAGTTGAGACGAGGGCAACCGATAGGTTG"
  property_label: "PBM binding z-score"
  numeric_readout: 0.643
- sequence_record: "TCATATAGCTAAAGGTGAAAGTCGAACGATATGA"
  property_label: "PBM binding z-score"
  numeric_readout: 0.944
- sequence_record: "CGTCCAAGGTCATAGGTGGTCAGTGAAGACAGAT"
  property_label: "PBM binding z-score"
  numeric_readout: 5.75
- sequence_record: "CATACAGGATCAGCTAGGCCAGAGTAGGGACGGC"
  property_label: "PBM binding z-score"
  numeric_readout: 0.213

Please report PBM binding z-score for every entry that follows.
1. ACTATGAGTTGAGACGAGGGCAACCGATAGGTTG
2. TCTGCTAGGTCAACGATGGCCAGCTAATCTGCTA
3. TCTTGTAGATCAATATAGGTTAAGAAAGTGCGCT
4. GGAACGAGGGCAACTTGATAGCAGAGTTTGATGG
5. CCTTACGGGTCAAGGTTATGGCACGGGTGGTACG
6. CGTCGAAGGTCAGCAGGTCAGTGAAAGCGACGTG

[1.14, 4.72, 0.586, 2.17, 4.67, 6.93]

###

I'd appreciate it if you could supply PBM binding z-score values for the items below.
Tested on: PPARa:RXRa (NR concentration 270 nM, RXRa partner concentration 90 nM)
Test: PBM binding z-score (relative to random genomic background probes); higher = stronger binding; sequences stand for … in GC…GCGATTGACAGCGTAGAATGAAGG
Answers are plain numbers.

Example entries begin here.
- sequence_record: "TCTTGTAGATCAAGCAAGTTAAGAAAGCCTGAGT"
  PBM binding z-score: 0.295
- sequence_record: "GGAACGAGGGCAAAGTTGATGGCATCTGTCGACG"
  PBM binding z-score: 4.09
- sequence_record: "TCTCGGAGAACACGAAAGGTCAGAGCTCGACATC"
  PBM binding z-score: 3.32
- sequence_record: "CCTTACGGGTCACGACGTTATAGCACGACGAGCG"
  PBM binding z-score: 5.69
- sequence_record: "TGTCAAAGTTCAAAGGTAACCTAAGTATCCACAC"
  PBM binding z-score: 6.03
- sequence_record: "CCTACTGGGCCATCAGGTCACTGATATCAACGTT"
  PBM binding z-score: 2.54
- sequence_record: "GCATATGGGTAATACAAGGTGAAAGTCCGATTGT"
  PBM binding z-score: 1.46
- sequence_record: "ACTATTAGTTGAGACGAGGGCAATCGATAGGTTG"
  PBM binding z-score: 0.253

Please report PBM binding z-score for every entry that follows.
1. TCATATGGGTAAAGGTGAAAGTCGAACGATATGA
2. TCATATAGGTAAAAGGTGAAAGACGGTGTGGTAA

1: 3.53; 2: 5.1

###

Test system: PXR homodimer (NR concentration 270 nM)
Experiment: PBM binding z-score (relative to random genomic background probes); higher = stronger binding; sequences stand for … in GC…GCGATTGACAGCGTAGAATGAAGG
property_label: PBM binding z-score
Numbers only.

Example entries begin here.
- sequence_record: "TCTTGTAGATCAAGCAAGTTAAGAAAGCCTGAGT"
  test_target: "PXR homodimer (NR concentration 270 nM)"
  PBM binding z-score: 0.419
- sequence_record: "TCAAGTTGGTCAAAGGTCACACACTCGAAATGCG"
  test_target: "PXR homodimer (NR concentration 270 nM)"
  PBM binding z-score: 1.87
- sequence_record: "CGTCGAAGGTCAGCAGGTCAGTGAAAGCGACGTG"
  test_target: "PXR homodimer (NR concentration 270 nM)"
  PBM binding z-score: 0.233

Please report PBM binding z-score for every entry that follows.
1. AGACTGAGGTTATTAAGATCAGGGAATTGCGGTC
2. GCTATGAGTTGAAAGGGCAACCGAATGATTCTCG
3. CGTCCAAGGTCTGAGAGGTCAGTGAATGCCGAGT
4. TCATATAGGTAAAGAGGTGAAAGTCCGTAAGTTA
5. TGTCAAAGATCAAAGGTAACGTAAGTATCCACAC
6. GATACAGGATCAAGGCCAGAGTACGCGTATTGAT

1: 0.427; 2: -0.0077; 3: 1.65; 4: 0.825; 5: -0.19; 6: -0.0263

Please report PBM binding z-score for every entry that follows.
1. TGAATGAGGTTATAGGATCAGGGAACGTTGCAAA
2. AGTCAAAGTTCATCGAGGTAACGTAAGATATGCT

1. 0.148
2. 9.82

###

Tested on: RARb homodimer (NR concentration 270 nM)
Assay: PBM binding z-score (relative to random genomic background probes); higher = stronger binding; sequences stand for … in GC…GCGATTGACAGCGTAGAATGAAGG
Assign true (1) to entries whose PBM binding z-score meets or exceeds 3; assign false (0) to the rest.

API: above_or_equal(metric=PBM binding z-score, cutoff=3) for item "TCTGCTAGGTCAGTTGGCCAGCTAACGAGCTGCC" false (0)

API: above_or_equal(metric=PBM binding z-score, cutoff=3) for item "CGGCAAAGTTCAAGGTAACGTAACAGAAAGCAGC" true (1)

API: above_or_equal(metric=PBM binding z-score, cutoff=3) for item "CTCGAACGGTCGTGCTCAGGTGAGTATACCAAAC" false (0)

API: above_or_equal(metric=PBM binding z-score, cutoff=3) for item "CCTCGGAGGACAACAGGAGGACAGAGCTGCCAGA" false (0)

API: above_or_equal(metric=PBM binding z-score, cutoff=3) for item "CCTCGGAGGACAGAAGGTCAGCGCTGTCCGCTTT" true (1)

API: above_or_equal(metric=PBM binding z-score, cutoff=3) for item "ATCTCTCGGTAAAGATAGTTCAGTGAATGCAAAT" false (0)

API: above_or_equal(metric=PBM binding z-score, cutoff=3) for item "ACAGACAGGTGATGAAGGTAACGCAGGCTATCAT" false (0)

API: above_or_equal(metric=PBM binding z-score, cutoff=3) for item "GCTGCTAGGTCAACTGATGGTTAGCTAAAGCTCG" true (1)

API: above_or_equal(metric=PBM binding z-score, cutoff=3) for item "TTTTGTAGATCAGCAGGTTAAGAAAGCTGGCCAA" false (0)

API: above_or_equal(metric=PBM binding z-score, cutoff=3) for item "ATCTCTAGGTAAGACTCAGTTCATTGAAGAACGC" false (0)

###

Tested on: RXRa homodimer (NR concentration 180 nM)
Experiment: PBM binding z-score (relative to random genomic background probes); higher = stronger binding; sequences stand for … in GC…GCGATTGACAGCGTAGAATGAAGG
I'd appreciate it if you could supply PBM binding z-score values for the items below.
Give bare numbers.

Example entries begin here.
- sequence_record: "CGTCCTAGGTCAGAGAGGTCAGTGAATGCCGAGT"
  numeric_readout: 4.49
- sequence_record: "TAACCTAGGTCATGGGCCAGTATACCACGCGAAC"
  numeric_readout: 4.02
- sequence_record: "CAAACTTGGTCAAAGGTCAAAGTCGAGCCAACCA"
  numeric_readout: 8.93
- sequence_record: "GCTTGTAGAACAAGGTTAAGAAAGACTAAGCTAA"
  numeric_readout: 0.633
- sequence_record: "CCTTACGCGTCACGAGGTTATAGCACGACGAGCG"
  numeric_readout: 1.38
- sequence_record: "TCTAGTTGGTCCAAGGTCACACACTCGAAATGCG"
  numeric_readout: 4.39
- sequence_record: "ATCTCTAGGTAACCAAGTTCTGTGAATGCCGAAC"
  numeric_readout: 0.246
- sequence_record: "CTCGAAAGGTCGGTTGAGGTGAGTCTACGGATAA"
  numeric_readout: 2.34
- sequence_record: "AGAATGAGGTTCAGATCAGGGAAACAGAATACAT"
  numeric_readout: 1.02
- sequence_record: "CGAACTAGCTCATTGACAGGACAGTGAATAGTAA"
  numeric_readout: -0.33

Please report PBM binding z-score for every entry that follows.
1. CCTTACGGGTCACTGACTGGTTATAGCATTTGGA
2. CAAACTAGGTCAAGGTCAACGTCGGTTTGTGCCA
3. CCTAGTTGGTCAGGAGGTCACACAACGGATATGA
4. TCAGAGAGGTGAAGGTAACTCAGGTACGCAGTCG
5. CGTCCAAGGTCATAGGAAGTCAGTGAAGACAGAT
6. GGAACGAGGGCGAAGTTGATAGCATCTGTCGACG

1. 4.93
2. 5.91
3. 4.82
4. 1.85
5. 5.28
6. 0.297

Please report PBM binding z-score for every entry that follows.
1. CCTGCTAGGTCATGGTCAGCTAGTCTACAGTATG
2. CGTCCAAGGTCAACGTCAGTGAAAGAGACTCGAA
3. ATCTCTAGGTATCCAAGTTCAGTGAATGCCGAAC
4. TCATGTAGATCAAAGGTTAAGAAAGCCGAAGCCT
5. CGTCAAAGTTCAAATAAGGTAACGTAAAGCACGC
6. CCTCAAAGTTCAACTAAGGTAACGTAAAGCACGC

1. 2.76
2. 6.13
3. 0.354
4. 3.55
5. 5.4
6. 5.11

Please report PBM binding z-score for every entry that follows.
1. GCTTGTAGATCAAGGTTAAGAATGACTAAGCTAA
2. GGAACGACGGCATTCGAGTTGATAGCATGGCGAT
3. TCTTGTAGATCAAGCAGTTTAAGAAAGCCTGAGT

[0.859, -0.39, -0.114]
